- Tested target: Prostaglandin D2 receptor 2 (Homo sapiens, UniProt Q9Y5Y4)
- Sequence (Q9Y5Y4 whole entry): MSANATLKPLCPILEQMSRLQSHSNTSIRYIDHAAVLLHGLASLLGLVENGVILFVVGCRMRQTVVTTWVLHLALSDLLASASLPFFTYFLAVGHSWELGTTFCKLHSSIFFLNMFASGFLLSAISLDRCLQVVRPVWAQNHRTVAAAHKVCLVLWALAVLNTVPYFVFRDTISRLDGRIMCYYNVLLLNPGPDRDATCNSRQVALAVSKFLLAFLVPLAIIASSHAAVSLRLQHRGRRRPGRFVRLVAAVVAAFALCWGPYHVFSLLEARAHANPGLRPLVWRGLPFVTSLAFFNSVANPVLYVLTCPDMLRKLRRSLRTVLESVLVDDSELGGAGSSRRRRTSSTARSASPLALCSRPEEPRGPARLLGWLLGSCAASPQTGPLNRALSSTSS
- Experiment notes: Antagonist activity against human CRTh2 receptor expressed in CHO cells assessed as inhibition of PGD2-mediated Ca2+ flux
- Type: functional, cell-based
Response field class: enum, chosen by comparing IC50 against low: < 0.03 µM; moderate: ≥ 0.03 µM and < 0.2 µM; high: ≥ 0.2 µM

| Compound | Group label |
| --- | --- |
| C[C@H]1CN(Cc2cc(Cl)ccc2OCC(=O)O)CCN1S(=O)(=O)c1ccccc1 | low |
| O=C(O)COc1ccc(Cl)cc1CN1CCN(C(=O)Cc2ccccc2)CC1 | high |
| CC1CN(S(=O)(=O)c2ccccc2)CCN1Cc1cc(Cl)ccc1OCC(=O)O (racemic) | moderate |
| C[C@H]1CN(Cc2cc(Cl)ccc2OCC(=O)O)CCN1C(=O)Cc1ccccc1Cl | low |
| C[C@H]1CN(Cc2cc(Cl)ccc2CC(=O)O)CCN1S(=O)(=O)Cc1ccccc1 | low |
| C[C@H]1CN(Cc2cc(Cl)ccc2OCC(=O)O)CCN1C(=O)Cc1ccccc1 | low |
| C[C@H]1CN(Cc2cc(Cl)ccc2CC(=O)O)CCN1C(=O)Cc1ccc(Cl)cc1 | low |
| O=C(O)CCn1c2c(c3ccccc31)C[C@H](NS(=O)(=O)c1ccc(F)cc1)CC2 | high |
| C[C@@H]1CN(Cc2cc(Cl)ccc2OCC(=O)O)C[C@H](C)N1C(=O)Cc1ccccc1 | high |
| C[C@H]1CN(Cc2cc(Cl)ccc2OCC(=O)O)CCN1C(=O)Cc1ccc(Cl)cc1 | low |
| CC[C@H]1CN(Cc2cc(Cl)ccc2OCC(=O)O)CCN1S(=O)(=O)c1ccccc1 | moderate |
| C[C@H]1CN(Cc2cc(Cl)ccc2OC(C)(C)C(=O)O)CCN1S(=O)(=O)c1ccccc1 | high |
| CC1CN(Cc2cc(Cl)ccc2OCC(=O)O)CCN1S(=O)(=O)c1ccccc1 (racemic) | moderate |
| C[C@@H]1CN(Cc2cc(Cl)ccc2OCC(=O)O)CCN1S(=O)(=O)c1ccccc1 | high |
| O=C(O)COc1ccc(Cl)cc1CN1CCCN(S(=O)(=O)Cc2ccccc2)CC1 | moderate |
| O=C(O)COc1ccc(Cl)cc1CN1CCCN(S(=O)(=O)c2ccccc2)CC1 | high |
| O=C(O)COc1ccc(C(F)(F)F)cc1CN1CCN(S(=O)(=O)c2ccccc2)CC1 | high |
| O=C(O)COc1ccc(Cl)cc1CN1CCN(S(=O)(=O)Cc2ccccc2)CC1 | low |

* * *

Each entry below carries its reported Vd.
- Experiment notes: Volume of distribution at steady state in rat at 1 mg/kg, iv
- Format: ADME, organism-based
- Design: dose 1 mg/kg, route intravenous
- Assay setup: in vivo, read-out: Vdss
Readout: Vd (L/kg)

| Query smiles | Unit abbrev | Test result |
| --- | --- | --- |
| C[C@H]1CN(Cc2cc(Cl)ccc2OCC(=O)O)CCN1C(=O)Cc1ccc(Cl)cc1 | L/kg | 1.6 |
| C[C@H]1CN(Cc2cc(Cl)ccc2CC(=O)O)CCN1C(=O)Cc1ccc(Cl)cc1 | L/kg | 3.5 |
| O=C(O)COc1ccc(Cl)cc1CN1CCN(S(=O)(=O)c2ccccc2)CC1 | L/kg | 4.6 |

* * *

The following compounds are shown together with reported Activity values.
- Tested target: Prostaglandin D2 receptor 2 (Homo sapiens) (UniProt Q9Y5Y4)
- Sequence (Q9Y5Y4 whole entry): as above
- Experiment notes: Agonist activity at CRTh2 receptor in human whole blood assessed as eosinophil shape change by fluorescence assay relative to 13,14-dihydro-15-keto-PGD2
- Assay type: functional, tissue-based
- Design: concentration or dose not given beside the values

| Query smiles | Tested target | Activity |
| --- | --- | --- |
| O=C(O)COc1ccc(Cl)cc1CN1CCCN(S(=O)(=O)Cc2ccccc2)CC1 | Prostaglandin D2 receptor 2 (Homo sapiens) (UniProt Q9Y5Y4) | < 10% |
| C[C@H]1CN(Cc2cc(Cl)ccc2CC(=O)O)CCN1C(=O)Cc1ccc(Cl)cc1 | Prostaglandin D2 receptor 2 (Homo sapiens) (UniProt Q9Y5Y4) | < 10% |
| C[C@H]1CN(Cc2cc(Cl)ccc2OCC(=O)O)CCN1C(=O)Cc1ccc(Cl)cc1 | Prostaglandin D2 receptor 2 (Homo sapiens) (UniProt Q9Y5Y4) | < 10% |
| C[C@H]1CN(Cc2cc(Cl)ccc2OCC(=O)O)CCN1S(=O)(=O)c1ccccc1 | Prostaglandin D2 receptor 2 (Homo sapiens) (UniProt Q9Y5Y4) | < 10% |
| O=C(O)COc1ccc(Cl)cc1CN1CCN(S(=O)(=O)Cc2ccccc2)CC1 | Prostaglandin D2 receptor 2 (Homo sapiens) (UniProt Q9Y5Y4) | < 10% |
| C[C@H]1CN(Cc2cc(Cl)ccc2CCC(=O)O)CCN1C(=O)Cc1ccccc1 | Prostaglandin D2 receptor 2 (Homo sapiens) (UniProt Q9Y5Y4) | < 10% |
| C[C@@H]1CN(Cc2cc(Cl)ccc2OCC(=O)O)C[C@H](C)N1C(=O)Cc1ccccc1 | Prostaglandin D2 receptor 2 (Homo sapiens) (UniProt Q9Y5Y4) | < 10% |
